- system-name: T1, p85β cSH2 (603-712) (mouse, UniProt O08908 603-712)
- T1 chain: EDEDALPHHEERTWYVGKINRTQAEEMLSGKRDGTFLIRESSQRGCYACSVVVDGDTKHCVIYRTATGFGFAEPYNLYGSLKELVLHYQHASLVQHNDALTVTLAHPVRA
- assay-comment: FP
Where no end group is shown, it is not given here. [ ]: non-standard residue; d: D form. The star is where a group is joined. 5FAM = O=C1OC2(c3ccc(O)cc3Oc3cc(O)ccc32)c2ccc(C(=O)*)cc21; pY = N[C@@H](Cc1ccc(OP(=O)(O)O)cc1)C(=O)O

{"binder": "5FAM-SD[pY]MNMTP [CD28 peptide, [5-FAM]-SD-[pY]-MNMTP]", "units-text": "nM", "Kd": 100}
